Numbers sourced from PubChem BioAssay.

The compounds listed here are annotated with their nuclei count.
- run description: reduction of polyQ htt aggregates in cells – imaging, exon1htt(103Q)mCFP cells, high-content imaging, primary screen (AID 483);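 further: compound exposure lasted 3 days before fixation; percent of the per-plate median nuclei count of sample wells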
- assay conditions: exon1htt(103Q)mCFP cell line, aggregate imaging, at 2 µM; measured here: cell count, toxicity
experimental endpoint: nuclei count (%)

compound	unit descriptor	reading
CC(=O)c1c(C)nn(CC(O)COc2ccc3c(c2)CCC3)c1C (stereo not drawn)	%	97.4
O=C1NCC(COCc2ccccc2)O1 (stereo not drawn)	%	87.4
Cc1nn(Cc2ccccc2)c2c1C(c1ccncc1)C(C#N)=C(N)O2 (stereo not drawn)	%	62.3
Cc1cc(C)c(NC(=O)CSc2nc3c(c(=O)n2C)SC(C)C3)c(C)c1 (stereo not drawn)	%	102
C=Cn1c(C(=O)O)cc(CC)c1-c1ccccc1	%	107
CCOC(=O)N1CCC(NC(=O)C2CCC(Cn3c(=O)[nH]c4ccccc4c3=O)CC2)CC1 (stereo not drawn)	%	105
N#Cc1ccc(CSc2nnc(-c3ccccn3)n2-c2ccccc2)cc1	%	91.3
CCN(CC)Cc1nc2c(c(=O)[nH]1)C1(CCCCC1)Cc1ccccc1-2	%	89.3
CC(=O)NCCn1ccc2ccccc21	%	93
C/C(N)=C(/C#N)C(=O)COC(=O)COc1ccc(Cl)cc1	%	97.4
O=C(CS(=O)(=O)c1cn(Cc2ccc(Cl)cc2)c2ccccc12)N1CCOCC1	%	91.1
COc1ccc(CCNC(=O)c2cnn3ccccc23)c(OC)c1OC	%	108
CC1Cc2ccccc2N1Cc1cc(=O)n2ccsc2n1 (stereo not drawn)	%	96.8
Cc1onc(-c2ccccc2)c1C(=O)N1CCN(C(=O)c2ccco2)CC1	%	111
CCCCCC1NC(=O)NC1CCCCCC(=O)O (stereo not drawn)	%	103
CC(=O)N1CCc2cc(S(=O)(=O)NCCC3=CCCCC3)ccc21	%	123
C/C(=C\C(=O)c1ccc(F)cc1)Nc1ccc(N2CCOCC2)cc1	%	86.5
COCCCN1C(=O)C(O)=C(C(C)=O)C1c1ccccn1 (stereo not drawn)	%	116
CCOCCn1cnc2sc(C(=O)Nc3nc(C)c(C(=O)OCC)s3)c(C)c2c1=O	%	121
CCc1nnc(NC(=O)CSc2nnc(-c3ccccc3OC)n2-c2ccccc2)s1	%	146
COc1ccccc1-n1c(SCC(=O)NC(C)(C)C)nnc1-c1ccco1	%	87.8
CCOC(=O)c1c(C)oc2ccc(OCC(=O)N(CC)CC)cc12	%	95.5
COC(=O)c1ccc(C(=O)OC)c(NC(=O)Nc2ccc3c(c2)OCO3)c1	%	94.2

====

- run description: endothelial E-selectin expression blockers – imaging, HUVEC, immunofluorescence, MLSMR starter and 10KST1 sets, primary screen (AID 487);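 further: signal is fraction of cell area covered by stained E-selectin grains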
- assay conditions: HUVEC TNFalpha-induced E-selectin immunofluorescence imaging, at 2 µM; stronger effect = higher value
experimental endpoint: inhibition (%)

compound	reading
CCCCCCNC(=O)c1c(N)n(/N=C/c2ccco2)c2nc3ccccc3nc12	26.4
CN(C)c1ccc(C2C3=C(CCCC3=O)OC3=C2C(=O)CCC3)cc1	-20.9
O=S(CC(O)COCc1ccc(Cl)cc1)c1ccccn1 (stereo unspecified)	-37
Cn1c(C(=O)OC(C(=O)NC2CCCC2)c2cccnc2)cc2sccc21 (stereo unspecified)	-76.7
O=C(CCn1c(=O)c2ccccc2n(CC(=O)NCCC2=CCCCC2)c1=O)NCc1ccco1	-9.8
O=S1(=O)C=CC(Nc2cccc(Cl)c2)C1 (stereo unspecified)	-7.5
